- METHOD DESCRIPTION: small-molecule microarray binders of probe aDKK1, primary screen, biochemical, biotinylated probe, 635/667 nm fluorescence (AID 1099);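 note: score merges 667nm spot fluorescence with signal to noise across triplicate slides; reference of the scale not given here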
- CONDITION NOTES: higher = more signal
QUANTITY MEASURED: composite z-score
# output: bare number, no unit

Consider the worked cases shown below.
>  <COMPOUND>
c1ccc(C2NCCc3c2[nH]c2ccccc32)cc1 (configuration not stated)

>  <QUANTITY MEASURED>
composite z-score

>  <VALUE REPORTED>
-0.227

$$$$
>  <COMPOUND>
CCN1C(=O)[C@H]2[C@H]3[C@H](O)[C@H](O)CC(=NOCC=C(C)CCC=C(C)C)[C@H]3CC[C@H]2C1=O

>  <QUANTITY MEASURED>
composite z-score

>  <VALUE REPORTED>
-0.338

$$$$
>  <COMPOUND>
CC(C)OC(=O)C=C1C[C@@H](c2ccc(C#N)cc2)O[C@@H](c2ccc(C#N)cc2)O1

>  <QUANTITY MEASURED>
composite z-score

>  <VALUE REPORTED>
0.738

$$$$
>  <COMPOUND>
CCOC(=O)NN=C1C[C@@H](O)[C@@H](O)[C@@H]2[C@@H]3C(=O)N(CC)C(=O)[C@@H]3CC[C@@H]12

>  <QUANTITY MEASURED>
composite z-score

>  <VALUE REPORTED>
-0.407

$$$$
>  <COMPOUND>
COCCOC(=O)N1C(=O)[C@@]2(c3ccccc31)[C@H](C(N)=O)[C@H]1C(=O)O[C@H](c3ccccc3)[C@H](c3ccccc3)N1[C@@H]2c1ccccc1OCCO

>  <QUANTITY MEASURED>
composite z-score

>  <VALUE REPORTED>
0.756

$$$$
>  <COMPOUND>
CC(CCC(=O)OC[C@H]1O[C@H](C#Cc2ccccc2)C=C[C@@H]1Oc1ccc(C)cc1)=NO[C@@H](C)c1cn([C@H](CO)Cc2ccccc2)nn1

>  <QUANTITY MEASURED>
composite z-score

>  <VALUE REPORTED>
-0.406

$$$$

Q) Reported composite z-score, compound CCOC(=O)[C@H](CC(C)C)NC(=O)CCC1CC(OC(=O)NCc2cccc3ccccc23)CC2(CCCC(COC(=O)NCCN3CCOCC3)O2)O1 (some centres not stated) : ____
A) -0.265

---

- METHOD DESCRIPTION: adipocyte viability effects, profiling panel, cell-based, 3T3-L1 adipocytes, calcein-AM fluorescence, 48 h, basal (AID 1163); note: test concentration not given here
- CONDITION NOTES: 3T3-L1 adipocytes viability, higher = more signal
QUANTITY MEASURED: z-score

// known answers, use as guide
>  <SUBSTANCE SMILES>
O=C(NN=C1C[C@@H](O)[C@@H](O)[C@@H]2[C@@H]3C(=O)N(c4ccc(F)cc4F)C(=O)[C@@H]3CC[C@@H]12)OCc1ccccc1

>  <VALUE REPORTED>
-0.902

$$$$
>  <SUBSTANCE SMILES>
CC(C)[Si]1(C(C)C)O[C@@H](c2ccccc2)c2cc(C3CC3)nc(-c3ccccc3)c21

>  <VALUE REPORTED>
-0.483

$$$$
>  <SUBSTANCE SMILES>
Cc1cc2c(c(=O)o1)[C@H](O)[C@H]1O[C@H]1C2=O

>  <VALUE REPORTED>
0.287

$$$$

Q) Request the reported z-score associated with CCCC[C@@H]1C[C@H]1[C@@H](NS(=O)(=O)c1cccc2cccnc12)c1ccc(-c2ccccc2)cc1
A) -1.08

Q) What z-score value was documented for this compound, CC(C)=NOCc1ccc(-c2cc(-c3ccccc3)no2)cc1 ?
A) 0.0379

Q) Quick one: z-score for COc1ccccc1CN1C(=O)c2ccccc2[C@@]2(Cc3ccccc3N(C(C)C)C2=O)[C@@H]1c1ccc(CO)cc1 ?
A) 0.423

Q) Param item = CCc1cccc(NC(=O)O[C@H]2[C@H](OC(=O)Nc3ccc4c(c3)OCO4)[C@@H](OC(=O)Nc3ccc4c(c3)OCO4)[C@@H](OC)O[C@@H]2CO)c1 ; retrieve measured z-score.
A) 0.29

Q) Item COC(=O)CC=C[C@H](C)[C@H](CO)NS(=O)(=O)c1ccc(C)cc1 has what recorded z-score?
A) 0.41

---

- TEST SYSTEM: Torsin-1A (Homo sapiens) (UniProt O14656)
- Sequence (O14656 whole entry, looked up): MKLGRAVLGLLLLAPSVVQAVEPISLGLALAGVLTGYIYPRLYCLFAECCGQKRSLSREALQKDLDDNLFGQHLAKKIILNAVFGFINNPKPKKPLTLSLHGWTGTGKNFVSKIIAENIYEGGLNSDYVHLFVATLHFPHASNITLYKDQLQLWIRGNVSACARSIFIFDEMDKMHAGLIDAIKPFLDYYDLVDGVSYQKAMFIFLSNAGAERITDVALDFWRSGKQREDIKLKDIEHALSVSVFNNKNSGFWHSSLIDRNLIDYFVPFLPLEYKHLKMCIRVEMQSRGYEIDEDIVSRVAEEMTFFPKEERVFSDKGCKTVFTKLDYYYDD
- METHOD DESCRIPTION: torsin A binders from cell lysate, primary screen, small-molecule microarray, wild-type, 635/667 nm (AID 1149)
- CONDITION NOTES: COS7 hTOR1A-WT lysate, 635 nm fluorescence, higher = more signal
Form field: composite z-score (one value per entry).

Please review the entries below; each comes with its answer.
>  <MOLECULE>
COC(=O)[C@@]1(Cc2ccccc2)[C@H]2c3cc(C(=O)N4CCCC4)n(Cc4ccccn4)c3C[C@H]2CN1C(=O)c1ccccc1

>  <composite z-score>
0.671

$$$$
>  <MOLECULE>
CCc1cc2c(nc1CC)CCN(CCC(C)=NOC[C@@H](O)COCc1ccco1)C2

>  <composite z-score>
3.95

$$$$

Q) Can you look up the measured composite z-score of O=C(CS)NCCCCCNC(=O)[C@H]1C[C@H]2C(=O)N3CCC[C@H]3C(=O)N2[C@H]1c1cccc(OCCO)c1 for me?
A) 0.581

Q) Need composite z-score, item COc1ccc([Si](C)(C)[C@@H]2[C@@H](CC(=O)N3CCC[C@H]3CO)O[C@]3(C(=O)N(Cc4cccc(N5CCC5=O)c4)c4ccccc43)[C@H]2C)cc1
A) 0.511

Q) // returns reported composite z-score for input CO[C@H]1O[C@H](CO)[C@@H](OC(=O)Nc2ccc(C#N)cc2)[C@H](OC(=O)c2cc3ccccc3[nH]2)[C@H]1OC(=O)c1cc2ccccc2[nH]1
A) 0.91

Q) # get_value(readout='composite z-score', item= COC(=O)[C@H](C)NC(=O)CCC1CC(OC(=O)NCCc2ccc(F)cc2)CC2(CCCC(COC(=O)NCC(c3ccccc3)c3ccccc3)O2)O1 (some centres not stated) )
A) -0.311

Q) # get_value(readout='composite z-score', item= CC(C)C[C@@H]1NC(=O)[C@H]2C[C@@H](C(=O)O)[C@@H](c3ccc(O)cc3)N2C1=O )
A) 0.884

---

- Test system: Noggin (protein binding on small-molecule microarray)
- METHOD DESCRIPTION: Noggin binders on small-molecule microarray, primary screen, biochemical, 635/667 nm fluorescence (AID 1095);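 note: score merges 667 nm feature fluorescence with signal to noise over triplicate slides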
- CONDITION NOTES: 635 nm fluorescence, higher = more signal
Some compounds, each annotated with its measured composite z-score.
In your answer, state the number alone without any accompanying words.

Example cases with answers are listed next.
>  <COMPOUND>
C#CCCCON=C1C[C@@H](O)[C@@H](O)[C@@H]2[C@@H]3C(=O)N(Cc4ccccc4)C(=O)[C@@H]3CC[C@H]12

>  <TEST SYSTEM>
Noggin (protein binding on small-molecule microarray)

>  <composite z-score>
0.407

$$$$
>  <COMPOUND>
CC1(C)OCC(C(O)C2=CCCCC2=O)CO1 (stereo not drawn)

>  <TEST SYSTEM>
Noggin (protein binding on small-molecule microarray)

>  <composite z-score>
0.986

$$$$
>  <COMPOUND>
CCOC(=O)NN=C1C[C@@H](O)[C@@H](O)[C@@H]2[C@@H]3C(=O)N(C4CCCCC4)C(=O)[C@@H]3CC[C@H]12

>  <TEST SYSTEM>
Noggin (protein binding on small-molecule microarray)

>  <composite z-score>
0.315

$$$$
>  <COMPOUND>
CCCC[C@H]1OB(O)C[C@H]2C1=C(C)C[C@H]1C(=O)N(C)C(=O)[C@H]12

>  <TEST SYSTEM>
Noggin (protein binding on small-molecule microarray)

>  <composite z-score>
0.622

$$$$
>  <COMPOUND>
CC(C)=CCCC(C)=CCON=C1[C@H]2CCn3c(=O)n(C)c(=O)n3[C@H]2[C@H](O)[C@@H]2O[C@H]12

>  <TEST SYSTEM>
Noggin (protein binding on small-molecule microarray)

>  <composite z-score>
1.18

$$$$
>  <COMPOUND>
CCN(CC)c1ccc(N2CC=CC34O[C@@H]5/C=C\CCC(C)OC(=O)C5[C@H]3C(=O)N(CCCO)[C@@H]4C2=O)cc1 (stereo partly drawn)

>  <TEST SYSTEM>
Noggin (protein binding on small-molecule microarray)

>  <composite z-score>
-0.686

$$$$
>  <COMPOUND>
CCOC(=O)[C@H](Cc1ccccc1)NC(=O)CCC1CC(OC(=O)NCc2ccc3c(c2)OCO3)CC2(CCCC(COC(=O)NCC(c3ccccc3)c3ccccc3)O2)O1 (stereo partly drawn)

>  <TEST SYSTEM>
Noggin (protein binding on small-molecule microarray)

>  <composite z-score>
0.955

$$$$

Proceeding to the next compound to report its composite z-score.
Q) Fill blank: measured composite z-score of the compound CCOC(=O)CCN1C(=O)[C@H]2[C@H]3[C@H](O)[C@H](O)CC(=NOCc4ccccc4)[C@@H]3CC[C@H]2C1=O is ____.
A) 0.676
